experiment_description: cell viability in Huh7 cells, primary screen, cytotoxicity control for HCV replication inhibitor project, CellTiter-Glo luminescence, basal, 48 h (AID 1143);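 note: Huh7 hepatoma cells carrying a hepatitis C replication reporter with no stimulus; test concentration not given here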
condition_details: Huh7 HCV replicon, higher = more signal, called active from +8 up or from −8 down
I'd appreciate it if you could supply z-score values for the items below.
API doc: respond with a numeric literal and nothing else, no unit.

In: Requested field: z-score. Item: `COC(=O)C[C@@H]1C[C@H](C)[C@]2(O1)C(=O)N(Cc1ccccc1)c1ccc(NC(C)=O)cc12`
Out: -0.578

In: Looking for the measured z-score of CC(C)c1ccc(NN2C(C(O)c3c(F)cccc3Cl)C=CC3C(=O)N(c4ccccc4)C(=O)C32)cc1 (stereo not drawn) , can you help?
Out: -0.78

In: Quick one: z-score of `[N-]=[N+]=NCc1ccccc1[C@@H]1OC(c2ccc(OCCCO)cc2)=N[C@]1(Cc1ccccc1)C(=O)N1CCCCC1` ?
Out: -3.77

In: z-score lookup needed for Cc1cc(C)c(C(O)C2C=CC3C(=O)N(c4ccccc4)C(=O)C3N2Nc2ccc(C#N)cc2)c(C)c1 (stereo not drawn) , thanks.
Out: 0.287

In: So what's the measured z-score for this one? `CC(C)C(=C=CC[C@@H](O)c1ccccc1OCCO)C[C@@H](O)c1ccccn1`
Out: -1.3

In: Could you tell me which z-score is on file for O=C1C2C=CC(C(O)c3ccc(F)cc3)N(Nc3ccccc3)C2C(=O)N1c1ccccc1 (stereo not drawn) ?
Out: 0.633

In: For `CCCN1C(=O)[C@]2(COC(c3ccc(OCCCO)cc3)=N2)Cc2ccccc21` , what is its reported z-score?
Out: -1.62

In: Returns the measured z-score for the input compound. Input: `Cc1ccc(S[C@]2(C(=O)NC3CC3)CC(=O)N(C3CCCCC3)[C@@H]2c2ccc(CO)cc2I)cc1`
Out: -3.4

In: Dear colleague, I am looking for the recorded z-score of the following compound: `O=C1O[C@H](c2ccccc2)[C@H](c2ccccc2)N2[C@H]1[C@@H](C(=O)Nc1nc3ccccc3s1)[C@]1(C(=O)Nc3ccccc31)[C@H]2c1ccc(O)cc1`
Out: -1.69

In: Value lookup for z-score; key = `CCC[C@@H]1C=C(C(=O)O)[C@H](c2ccc(C)cc2)N1S(=O)(=O)c1ccc(C)cc1`
Out: 0.224

In: What value of measured z-score is listed for `COCCOC(=O)N1C(=O)[C@@]2(c3ccccc31)[C@H](C(=O)NC[C@H](O)c1ccccc1)[C@H]1C(=O)O[C@H](c3ccccc3)[C@H](c3ccccc3)N1[C@@H]2c1ccc(OCCO)cc1` ?
Out: -3.37

In: Returns the measured z-score for the input compound. Input: `COC(=O)[C@@]1(Cc2ccc(OC)cc2)[C@H]2c3cc(C(=O)N4CCCC4)n(Cc4cc(F)cc5c4OCOC5)c3C[C@H]2CN1C(=O)c1ccccc1`
Out: -2.5

In: Could you tell me which z-score is on file for `COC(=O)[C@@]1(Cc2ccc(F)cc2)[C@H]2c3cc(C(=O)N4CCCC4)n(Cc4cccc5ccccc45)c3C[C@H]2CN1C(=O)c1ccccc1` ?
Out: -1.8

In: What value of z-score has been reported for the following compound? `O=C1O[C@@H](c2ccccc2)[C@@H](c2ccccc2)N2[C@@H](c3ccc(O)cc3)[C@]3(C(=O)Nc4ccc(C#CC5(O)CCCCCC5)cc43)[C@@H](C(=O)N3CCCCCCC3)[C@H]12`
Out: -2.41

In: What measured z-score goes with `COC(=O)[C@@]1(Cc2ccccc2)[C@H]2c3cc(C(=O)N4CCCC4)n(C)c3C[C@H]2CN1C(=O)c1ccccc1` ?
Out: -1.6

In: GET /values?readout=z-score&item= C=CC(COC(C)=O)NS(=O)(=O)c1ccc(Br)cc1 (stereo not drawn)
Out: 0.0481

In: Item under review: `C=CCOC(=O)[C@H]1[C@@H]2C(=O)O[C@@H](c3ccccc3)[C@@H](c3ccccc3)N2[C@@H](c2ccc(OCCOC(=O)[C@@H]3C[C@@H]4C(=O)NCC(=O)N4[C@@H]3c3ccc(O)cc3)cc2)[C@]12C(=O)Nc1ccccc12` . Reported z-score?
Out: -0.987

In: # get_value(readout='z-score', item= CC(C)(C)N1CC=CC23O[C@@H]4/C=C\CCCOC(=O)C4[C@H]2C(=O)N(CCO)[C@@H]3C1=O (stereo partly drawn) )
Out: 0.0369

In: Which z-score value is on record for `C[C@]1(C(=O)NCc2ccccc2)c2ccccc2C(=O)N(Cc2cc(F)cc(C(F)(F)F)c2)[C@H]1c1ccc(CO)cc1` ?
Out: -1.8

In: Name the reported z-score value associated with the compound `CC(=O)NCCCC[C@@H]1NC(=O)[C@@H]2C[C@H](C(=O)NCCCCN(C)C)[C@H](c3ccc(O)cc3)N2C1=O`
Out: 0.0068

In: For `CCOC(=O)C[C@H]1[C@H](OC(=O)c2ccc(-c3ccccc3)cc2)[C@@H](NC(=O)c2ccc(-c3ccccc3)cc2)c2cc(OCCCO)ccc2N1C(=O)Cc1ccc(OC)cc1` , what is its reported z-score?
Out: -0.477

In: Need z-score of CC(C)(C)N1CC=CC23O[C@@H]4C=CCOC(=O)[C@@H]4[C@H]2C(=O)N(CCCCCO)[C@@H]3C1=O (stereo partly drawn) , thanks.
Out: 0.228

In: Entry `CN(C)CCCNC(=O)[C@@]1(Cc2ccccc2I)c2ccccc2C(=O)N(Cc2ccccc2C(F)(F)F)[C@H]1c1ccc(CO)cc1` has what z-score?
Out: -5.77

In: Look up z-score for this compound: `C=CCOC(=O)[C@@H]1[C@H]2C(=O)O[C@H](c3ccccc3)[C@H](c3ccccc3)N2[C@H](c2ccc(OCCOC(=O)[C@@H]3C[C@@H]4C(=O)N[C@@H](Cc5ccccc5)C(=O)N4[C@@H]3c3cccc(OCCO)c3)cc2)[C@@]12C(=O)Nc1ccc(I)cc12`
Out: -0.166

In: Record request: z-score value, item `O=C1O[C@@H](c2ccccc2)[C@@H](c2ccccc2)N2[C@@H](c3ccc(O)cc3)[C@]3(C(=O)Nc4ccc(C#CC5=CCCCC5)cc43)[C@@H](C(=O)O)[C@H]12`
Out: -2.52

In: Any idea what its z-score is? The compound is `C=CC[C@@H](OC(=O)Nc1ccc(OC)cc1)c1ccc(O)c2ccccc12`
Out: -4.89

In: Record request: z-score value, item `C=CCN1C(=O)[C@]2(O[C@H](CCO)[C@@H]([Si](C)(C)c3ccc(OC)cc3)[C@@H]2C)c2cc(NC(=O)[C@H](C)O)ccc21`
Out: -6.12

In: Any idea what its z-score is? The compound is CC(C)OC(=O)CC(=O)CC(O)c1ccc(C#N)cc1 (stereo not drawn)
Out: -1.68
